Where do the numbers come from? From the antibiotic and cytotoxicity screens of Wong et al. (2023).

# Test system: S. aureus RN4220
# method.notes: growth inhibition call (relative growth <= 0.2)
# condition.context: 50 µM
Hit rate of the full screen: of about 39,000 compounds, about 500 (1.3%) were called active. The sample holds actives, similar compounds and a random draw of the others, so the mix is not that of the screen.
Outcomes: true for active, false for inactive

INSERT INTO results (molecule, category_label) VALUES
  ('CC1=C(C(=O)O)N2C(=O)[C@@H](NC(=O)[C@@H](N)c3ccc(O)cc3)[C@H]2SC1', 'false'),
  ('C[C@@H]1CN([C@H](C)CO)C(=O)c2cccc(NC(=O)Nc3ccc(C(F)(F)F)cc3)c2O[C@@H]1CN(C)C(=O)Nc1ccc2c(c1)OCO2', 'false'),
  ('COc1ccc2ccccc2c1-c1c(OC)ccc2ccccc12', 'false'),
  ('C/C=C\C1=C(C(=O)O)N2C(=O)[C@H](NC(=O)[C@@H](N)c3ccc(O)cc3)[C@@H]2SC1', 'false'),
  ('COc1cccc(-c2cn(CC[C@H]3CC[C@H](NC(=O)CN(C)C)[C@@H](CO)O3)nn2)c1', 'false'),
  ('C[C@H](CO)N1C[C@H](C)[C@@H](CN(C)C(=O)c2ccncc2)OCCCC[C@H](C)Oc2ccc(NS(=O)(=O)c3ccc(Cl)cc3)cc2C1=O', 'false'),
  ('COc1cc(/C=C/c2cc(/C=C/c3ccc(O)c(OC)c3)n(Cc3ccc4c(c3)OCO4)c(=S)n2)ccc1O', 'false'),
  ('O=C(NCC(F)(F)F)[C@H]1[C@H](CO)[C@H]2Cn3c(cccc3=O)[C@@H]1N2C(=O)C1CCC1', 'false'),
  ('C[C@H](CO)N1C[C@H](C)[C@H](CN(C)CC2CC2)OCCCC[C@H](C)Oc2ccc(NC(=O)Cc3ccccc3)cc2C1=O', 'false'),
  ('C[C@H]1CCCCO[C@H](CN(C)CC2CCCCC2)[C@@H](C)CN([C@@H](C)CO)C(=O)c2cc(NC(=O)CCC(F)(F)F)ccc2O1', 'false'),
  ('C[C@@H]1O[C@@H](O[C@H]2[C@H](Oc3cc(O)c4c(c3)O[C@H](c3ccc(O)cc3)CC4=O)O[C@H](CO)[C@@H](O)[C@@H]2O)[C@H](O)[C@H](O)[C@H]1O', 'false'),
  ('CC1=C(C(=O)O)N2C(=O)[C@@H](NC(=O)[C@H](N)c3ccc(O)cc3)[C@H]2SC1', 'true'),
  ('COc1ccccc1C#Cc1cnc2c(c1)C(=O)N([C@@H](C)CO)C[C@H](C)[C@@H](CN(C)S(=O)(=O)c1cn(C)cn1)O2', 'false'),
  ('CC1=C(C(=O)O)N2C(=O)C(NC(=O)C(N)c3ccc(O)cc3)C2SC1 (stereo not given)', 'false'),
  ('C[C@H](CO)N1C[C@H](C)[C@H](CN(C)S(=O)(=O)c2ccc(F)cc2)Oc2ncc(-c3ccncc3)cc2C1=O', 'false'),
  ('C[C@@H]1CCCCO[C@@H](CN(C)C(=O)Nc2ccc(C(F)(F)F)cc2)[C@H](C)CN([C@H](C)CO)C(=O)c2cc(NS(=O)(=O)c3cn(C)cn3)ccc2O1', 'false'),
  ('C[C@@H]1CN([C@H](C)CO)C(=O)Cc2cc(NS(=O)(=O)c3ccc(Cl)cc3)ccc2O[C@@H]1CN(C)S(C)(=O)=O', 'false'),
  ('CC(NCCCc1cccc(C(F)(F)F)c1)c1cccc2ccccc12.Cl (stereo not given)', 'true'),
  ('CC=CC1=C(C(=O)O)N2C(=O)C(NC(=O)C(N)c3ccc(O)cc3)C2SC1 (stereo not given)', 'false'),
  ('COc1ccccc1NC(=O)N(C)C[C@H]1Oc2ncc(C#CCN(C)C)cc2C(=O)N([C@@H](C)CO)C[C@@H]1C', 'false');
